Data provenance is patent EP4786492A1.

A collection of binders and their measured MFI
# assayed system: monkey DLL3 on CHO-K1-cyno DLL3 cells (cynomolgus monkey)
# Sequence (chain, as listed by the source limits assumed): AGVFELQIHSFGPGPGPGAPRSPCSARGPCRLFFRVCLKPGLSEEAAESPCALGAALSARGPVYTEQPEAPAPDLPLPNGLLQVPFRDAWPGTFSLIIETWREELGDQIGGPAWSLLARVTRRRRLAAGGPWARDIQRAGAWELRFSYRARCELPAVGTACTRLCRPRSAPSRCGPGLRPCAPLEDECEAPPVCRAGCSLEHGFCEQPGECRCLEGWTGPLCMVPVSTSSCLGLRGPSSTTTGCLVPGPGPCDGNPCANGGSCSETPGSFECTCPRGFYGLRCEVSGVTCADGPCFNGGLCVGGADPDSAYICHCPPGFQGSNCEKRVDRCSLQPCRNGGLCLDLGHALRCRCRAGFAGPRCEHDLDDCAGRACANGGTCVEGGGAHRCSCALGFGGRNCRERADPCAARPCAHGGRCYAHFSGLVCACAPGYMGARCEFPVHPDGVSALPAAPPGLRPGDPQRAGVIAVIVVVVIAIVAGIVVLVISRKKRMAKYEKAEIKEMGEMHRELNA
# assay: FACS, CHO-K1-cyno DLL3 cells, 4 nM antibody
For clarity, give the value followed by its unit.

Hab009VL3aVH1-hFc (scFv, part only; not given: VL-VH linker and human IgG1 Fc, V domains shown, not shown: another chain or arm of the molecule; a dimerising Fc or GST; small tags and cut ends) VL: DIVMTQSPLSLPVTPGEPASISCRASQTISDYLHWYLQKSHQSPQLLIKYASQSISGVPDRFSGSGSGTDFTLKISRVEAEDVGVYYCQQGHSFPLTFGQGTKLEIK VH: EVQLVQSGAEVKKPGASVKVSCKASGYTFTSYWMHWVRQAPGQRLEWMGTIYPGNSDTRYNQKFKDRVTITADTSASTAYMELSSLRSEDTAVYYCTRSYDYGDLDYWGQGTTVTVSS = 30000 MFI
Hab014VL1VH2-hFc (scFv, part only; not given: VL-VH linker and human IgG1 Fc, V domains shown, not shown: another chain or arm of the molecule; a dimerising Fc or GST; small tags and cut ends) VL: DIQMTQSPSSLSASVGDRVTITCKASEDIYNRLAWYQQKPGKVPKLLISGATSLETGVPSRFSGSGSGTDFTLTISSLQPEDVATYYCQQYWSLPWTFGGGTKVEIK VH: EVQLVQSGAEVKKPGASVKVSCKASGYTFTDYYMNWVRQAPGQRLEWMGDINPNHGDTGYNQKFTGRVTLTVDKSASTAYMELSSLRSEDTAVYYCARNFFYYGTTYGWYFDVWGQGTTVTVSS = 25900 MFI

Data request: Request the reported MFI associated with Hab014VL3VH1-hFc (scFv, part only; not given: VL-VH linker and human IgG1 Fc, V domains shown, not shown: another chain or arm of the molecule; a dimerising Fc or GST; small tags and cut ends) VL: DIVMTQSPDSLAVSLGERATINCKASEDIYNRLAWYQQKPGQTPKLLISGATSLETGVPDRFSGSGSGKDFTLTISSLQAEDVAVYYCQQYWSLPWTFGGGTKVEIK VH: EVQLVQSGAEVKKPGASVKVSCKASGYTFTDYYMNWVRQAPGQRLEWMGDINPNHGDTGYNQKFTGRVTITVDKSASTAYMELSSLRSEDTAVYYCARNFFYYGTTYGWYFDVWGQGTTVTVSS
Data returned: 27700 MFI
